Assay: Xenobiotic depletion in the bacterial colon model, anaerobic incubation
Settings: human
Please respond with reported half-life at 500 µM for every item in the list.

Incoming: half-life at 500 µM for CCOC(=O)C1=C(C)NC(C)=C(C(=O)OC)C1c1cccc([N+](=O)[O-])c1 (stereo not shown) ?
Outgoing: 0.75 h

Incoming: half-life at 500 µM for CC(=O)OCC(=O)NCCCOc1cccc(CN2CCCCC2)c1 [Roxatidine-acetate, roxatidine-acetate] ?
Outgoing: 0.61 h

Incoming: half-life at 500 µM for `O=C(N[C@H](CO)[C@H](O)c1ccc([N+](=O)[O-])cc1)C(Cl)Cl` ?
Outgoing: 1.47 h

Incoming: half-life at 500 µM for CC1=C(CC(=O)O)c2cc(F)ccc2/C1=C\c1ccc([S+](C)[O-])cc1 (stereo not shown) ?
Outgoing: 3.47 h

----------
Test: in vitro
Settings: human
experimentalReadout: half-life at 500 µM (h)
Kindly answer with a numeric value in h, unit omitted.

Incoming: half-life at 500 µM for CC(=O)OCC(=O)NCCCOc1cccc(CN2CCCCC2)c1 [Roxatidine-acetate, roxatidine-acetate] ?
Outgoing: 0.6

Incoming: half-life at 500 µM for CCOC(=O)C1=C(C)NC(C)=C(C(=O)OC)C1c1cccc([N+](=O)[O-])c1 (stereo not shown) [Nitrendipine, nitrendipine] ?
Outgoing: 1.58

Incoming: half-life at 500 µM for O=C(N[C@H](CO)[C@H](O)c1ccc([N+](=O)[O-])cc1)C(Cl)Cl [Chloramphenicol, chloramphenicol] ?
Outgoing: 1.54

Incoming: half-life at 500 µM for CC1=C(CC(=O)O)c2cc(F)ccc2/C1=C\c1ccc([S+](C)[O-])cc1 (stereo not shown) [Sulindac, sulindac] ?
Outgoing: 5.78

----------
Assay: Xenobiotic depletion in the sterile-filtered fecal exoenzyme fraction
Type: in vitro ADME, human
Conditions: human, sterile-filtered fecal exoenzyme fraction (cell-free), 500 µM test compound, anaerobic, 37°C, 24 h, three donor pools, read-out: half-life (t1/2) (converted)
experimentalReadout: half-life at 500 µM

Incoming: half-life at 500 µM for O=C(O)c1cc(/N=N/c2ccc(S(=O)(=O)Nc3ccccn3)cc2)ccc1O [Sulfasalazine, sulfasalazine] ?
Outgoing: > 24 h

Incoming: half-life at 500 µM for CC1=C(CC(=O)O)c2cc(F)ccc2/C1=C\c1ccc([S+](C)[O-])cc1 (centres unmarked) [Sulindac, sulindac] ?
Outgoing: > 24 h

Incoming: half-life at 500 µM for CC(=O)OCC(=O)NCCCOc1cccc(CN2CCCCC2)c1 [Roxatidine-acetate, roxatidine-acetate] ?
Outgoing: 4.33 h

Incoming: half-life at 500 µM for CCOC(=O)C1=C(C)NC(C)=C(C(=O)OC)C1c1cccc([N+](=O)[O-])c1 (centres unmarked) [Nitrendipine, nitrendipine] ?
Outgoing: > 24 h

Incoming: half-life at 500 µM for O=C(N[C@H](CO)[C@H](O)c1ccc([N+](=O)[O-])cc1)C(Cl)Cl [Chloramphenicol, chloramphenicol] ?
Outgoing: > 24 h

----------
Please respond with reported apparent first-order rate constant (k) for every item in the list.
Experiment: physchem
Conditions: 500 µM
Kindly answer with a numeric value in h⁻¹, unit omitted.

Incoming: apparent first-order rate constant (k) for CC(=O)OCC(=O)NCCCOc1cccc(CN2CCCCC2)c1 [Roxatidine-acetate, roxatidine-acetate] ?
Outgoing: 0.005

Incoming: apparent first-order rate constant (k) for CCOC(=O)C1=C(C)NC(C)=C(C(=O)OC)C1c1cccc([N+](=O)[O-])c1 (stereo not shown) [Nitrendipine, nitrendipine] ?
Outgoing: 0.0009

Incoming: apparent first-order rate constant (k) for CC1=C(CC(=O)O)c2cc(F)ccc2/C1=C\c1ccc([S+](C)[O-])cc1 (stereo not shown) [Sulindac, sulindac] ?
Outgoing: 0.0003

Incoming: apparent first-order rate constant (k) for O=C(O)c1cc(/N=N/c2ccc(S(=O)(=O)Nc3ccccn3)cc2)ccc1O [Sulfasalazine, sulfasalazine] ?
Outgoing: 0.002

Source: paper PMC13222238
